# Tested on: 422866-222-R5-J1-PDC spheroids with HUVEC/MSC, viability
# assayProtocol: Anticancer human tumor 422866-222-R5-J1-PDC patient-derived pancreatic adenocarcinoma cell line growth inhibition [GQUAD]
# statedConditions: second compound 0.1 µM; first compound 0.1 µM; stronger effect = lower value
endpointLabel: viability, T/C

Request: Param readout = viability, T/C; param system = 422866-222-R5-J1-PDC spheroids with HUVEC/MSC, viability; param query = CC(C)(O)C1CCC(Nc2ccc3ncc(-c4cccc(C(F)(F)F)c4)n3n2)CC1 (stereo not given) + Cc1cnc(CNC(=O)c2c(=O)c3ccc(N4CCCN(C)CC4)nc3n3c2sc2ccccc23)cn1 ; response: value
Response: 76.3%

Request: Check CC1COCCN1c1cc(C2(O)CC3CCC(C2)O3)c2cnn(-c3ccn[nH]3)c2n1 (stereo not given) + Cc1[nH]c2ccc(F)cc2c1-c1nc2c3cccnc3c3ncccc3c2[nH]1 too.
Response: 55.9%

Request: Check C#Cc1c(F)ccc2cc(O)cc(-c3ncc4c(N5CC6CCC(C5)N6)nc(OCC56CCCN5CC(F)C6)nc4c3F)c12 (stereo not given) + Cc1[nH]c2ccc(F)cc2c1-c1nc2c3cccnc3c3ncccc3c2[nH]1 too.
Response: 92.1%

---
Request: Param readout = viability, T/C; param system = 422866-222-R5-J1-PDC spheroids with HUVEC/MSC, viability; param query = C=CCn1c(=O)c2cnc(Nc3ccc(N4CCN(C)CC4)cc3)nc2n1-c1cccc(C(C)(C)O)n1 + CN(C)c1ccc(Nc2c3ccc(NC(=O)CCN4CCCC4)cc3nc3cc(NC(=O)CCN4CCCC4)ccc23)cc1 ; response: value
Response: 96.1%

Request: Check O=c1[nH]cc(F)c(=O)[nH]1 + Cc1cnc(CNC(=O)c2c(=O)c3ccc(N4CCCN(C)CC4)nc3n3c2sc2ccccc23)cn1 too.
Response: 79.6%

====

Measured pIC50, listed per entry.
# System: 422866-222-R5-J1-PDC spheroids with HUVEC/MSC, viability
# assayProtocol: Anticancer human tumor 422866-222-R5-J1-PDC cell line growth inhibition [GQUAD];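 note: spheroids exposed to compounds for seven days before reading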
# statedConditions: curve of first compound; second compound 0.0316 µM
In simple prose, pIC50 is minus the logarithm base ten of a concentration in moles per litre.

Consider the reported pIC50 for these molecules:
Request: So what's the measured pIC50 for this one? COc1ncnc(C2CC2)c1-c1ncc2cnn(Cc3ccc(-c4nc(C(F)(F)F)cn4C(C)C)cc3)c2n1 + Cc1[nH]c2ccc(F)cc2c1-c1nc2c3cccnc3c3ncccc3c2[nH]1
Response: 5.09

Request: Check CC[C@@]1(O)C(=O)OCc2c1cc1n(c2=O)Cc2cc3c(CN(C)C)c(O)ccc3nc2-1 + Cc1[nH]c2ccc(F)cc2c1-c1nc2c3cccnc3c3ncccc3c2[nH]1 too.
Response: 7.19

Request: Check O=C(NO)c1cnc(N2CCN(S(=O)(=O)c3ccc4ccccc4c3)CC2)nc1 + CN(C)c1ccc(Nc2c3ccc(NC(=O)CCN4CCCC4)cc3nc3cc(NC(=O)CCN4CCCC4)ccc23)cc1 too.
Response: 6.10

Pending molecule:
Request: So what's the measured pIC50 for this one? COc1cccc2c1C(=O)c1c(O)c3c(c(O)c1C2=O)CC(O)(C(=O)CO)CC3OC1CC(N)C(O)C(C)O1 (stereo unspecified) + CN(C)c1ccc(Nc2c3ccc(NC(=O)CCN4CCCC4)cc3nc3cc(NC(=O)CCN4CCCC4)ccc23)cc1
Response: 6.22

====

# Tested on: 422866-222-R5-J1-PDC spheroids with HUVEC/MSC, viability
# assayProtocol: Anticancer human tumor 422866-222-R5-J1-PDC cell line growth inhibition [GQUAD];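 note: spheroids exposed to compounds for seven days before reading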;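 for viability, T/C: percent viability relative to DMSO vehicle control taken as 100%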
# statedConditions: second compound 0.1 µM; first compound 0.1 µM; stronger effect = lower value
endpointLabel: viability, T/C (%)
A number alone suffices; assume %.

Consider the reported viability, T/C for these compounds:
Request: So what's the measured viability, T/C for this one? COc1cccc2c1C(=O)c1c(O)c3c(c(O)c1C2=O)CC(O)(C(=O)CO)CC3OC1CC(N)C(O)C(C)O1 (stereo unspecified) + Cc1cnc(CNC(=O)c2c(=O)c3ccc(N4CCCN(C)CC4)nc3n3c2sc2ccccc23)cn1
Response: 69.5

Request: Check COc1ccc([C@@H](O)c2cc(-c3ncnc4cc(N5CCOCC5)ccc34)c(F)cc2Cl)nn1 + CN(C)c1ccc(Nc2c3ccc(NC(=O)CCN4CCCC4)cc3nc3cc(NC(=O)CCN4CCCC4)ccc23)cc1 too.
Response: 86.9

Request: Check Nc1ccn(C2OC(CO)C(O)C2(F)F)c(=O)n1 (stereo unspecified) + Cc1[nH]c2ccc(F)cc2c1-c1nc2c3cccnc3c3ncccc3c2[nH]1 too.
Response: 82.2

Request: Check COc1ncnc(C2CC2)c1-c1ncc2cnn(Cc3ccc(-c4nc(C(F)(F)F)cn4C(C)C)cc3)c2n1 + Cc1cnc(CNC(=O)c2c(=O)c3ccc(N4CCCN(C)CC4)nc3n3c2sc2ccccc23)cn1 too.
Response: 74.7

---
Request: So what's the measured viability, T/C for this one? COc1cc(C2c3cc4c(cc3C(OC3OC5COC(C)OC5C(O)C3O)C3COC(=O)C23)OCO4)cc(OC)c1O (stereo unspecified) + Cc1cnc(CNC(=O)c2c(=O)c3ccc(N4CCCN(C)CC4)nc3n3c2sc2ccccc23)cn1
Response: 79.2

Request: Check Cc1cccc(N(C)C(=O)C2C(O)CCN2c2nc(C)cc(C(F)(F)F)c2C#N)c1 (stereo unspecified) + Cc1[nH]c2ccc(F)cc2c1-c1nc2c3cccnc3c3ncccc3c2[nH]1 too.
Response: 92.2

Request: Check Cc1cccc(N(C)C(=O)C2C(O)CCN2c2nc(C)cc(C(F)(F)F)c2C#N)c1 (stereo unspecified) + Cc1cnc(CNC(=O)c2c(=O)c3ccc(N4CCCN(C)CC4)nc3n3c2sc2ccccc23)cn1 too.
Response: 86.3

Request: Check CC1COCCN1c1cc(C2(S(C)(=N)=O)CC2)nc(-c2ccnc3[nH]ccc23)n1 (stereo unspecified) + Cc1[nH]c2ccc(F)cc2c1-c1nc2c3cccnc3c3ncccc3c2[nH]1 too.
Response: 83.8

Request: Check CC1COCCN1c1cc(C2(S(C)(=N)=O)CC2)nc(-c2ccnc3[nH]ccc23)n1 (stereo unspecified) + Cc1cnc(CNC(=O)c2c(=O)c3ccc(N4CCCN(C)CC4)nc3n3c2sc2ccccc23)cn1 too.
Response: 102

Request: Check CC(C)n1c(=O)n(C)c2cnc3cc(F)c(-c4ccc(OCCCN5CCCCC5)nc4)cc3c21 + Cc1cnc(CNC(=O)c2c(=O)c3ccc(N4CCCN(C)CC4)nc3n3c2sc2ccccc23)cn1 too.
Response: 85.2

Request: Check O=c1[nH]cc(F)c(=O)[nH]1 + Cc1[nH]c2ccc(F)cc2c1-c1nc2c3cccnc3c3ncccc3c2[nH]1 too.
Response: 111

====

# Tested on: 422866-222-R5-J1-PDC spheroids with HUVEC/MSC, viability
# assayProtocol: Anticancer human tumor 422866-222-R5-J1-PDC cell line growth inhibition [GQUAD];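 note: spheroids exposed to compounds for seven days before reading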;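 for viability, T/C: percent viability relative to DMSO vehicle control taken as 100%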
# statedConditions: second compound 10 µM; first compound 0.00316 µM; stronger effect = lower value
I'd appreciate it if you could label each record using viability, T/C and these ranges: bottom end (below 70%), midrange (70% to below 90%), top end (90% or more)

Request: Returns: class label. Input: Cn1ncnc1[C@H]1c2n[nH]c(=O)c3cc(F)cc(c23)N[C@@H]1c1ccc(F)cc1 + Cc1[nH]c2ccc(F)cc2c1-c1nc2c3cccnc3c3ncccc3c2[nH]1
Response: top end

Request: Check Cn1ncnc1[C@H]1c2n[nH]c(=O)c3cc(F)cc(c23)N[C@@H]1c1ccc(F)cc1 + CN(C)c1ccc(Nc2c3ccc(NC(=O)CCN4CCCC4)cc3nc3cc(NC(=O)CCN4CCCC4)ccc23)cc1 too.
Response: midrange

Request: Check CCc1c2c(nc3ccc(O)cc13)-c1cc3c(c(=O)n1C2)COC(=O)[C@]3(O)CC + CN(C)c1ccc(Nc2c3ccc(NC(=O)CCN4CCCC4)cc3nc3cc(NC(=O)CCN4CCCC4)ccc23)cc1 too.
Response: bottom end

====

# Tested on: 422866-222-R5-J1-PDC spheroids with HUVEC/MSC, viability
# assayProtocol: Anticancer human tumor 422866-222-R5-J1-PDC cell line growth inhibition [GQUAD]; active = viability on the fitted dose curve at most 10% of control; inactive = the rest;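 note: spheroids exposed to compounds for seven days before reading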
# statedConditions: second compound 3.16 µM; first compound 10 µM
Classes to choose from: active, inactive

Request: So what was the verdict on C=CC(=O)N1CCN(c2nc(=O)n(-c3c(C)ccnc3C(C)C)c3nc(-c4c(O)cccc4F)c(F)cc23)C(C)C1 (stereo not drawn) + Cc1[nH]c2ccc(F)cc2c1-c1nc2c3cccnc3c3ncccc3c2[nH]1 in this test?
Response: inactive

Request: Check CC(=O)O[C@H]1C(=O)[C@@]2(C)[C@H]([C@H](OC(=O)c3ccccc3)[C@]3(O)C[C@H](OC(=O)[C@H](O)[C@@H](NC(=O)c4ccccc4)c4ccccc4)C(C)=C1C3(C)C)[C@]1(OC(C)=O)CO[C@@H]1C[C@@H]2O + Cc1cnc(CNC(=O)c2c(=O)c3ccc(N4CCCN(C)CC4)nc3n3c2sc2ccccc23)cn1 too.
Response: inactive

Request: Check O=C(NO)c1cnc(N2CCN(S(=O)(=O)c3ccc4ccccc4c3)CC2)nc1 + Cc1cnc(CNC(=O)c2c(=O)c3ccc(N4CCCN(C)CC4)nc3n3c2sc2ccccc23)cn1 too.
Response: active
